# Test system: MDA-MB-231 breast
# method description: NCI tumour cell line growth inhibition, 48 h
reported property: TGI (µM)
Enter your answer as a number in µM; do not include the unit.

Before answering, review these 2 worked examples.
CCCCCCCCCCCCCCCC[N+](C)(CCO)Cc1cnc[nH]1 (stereo not drawn); 5.5
O=Cc1ccc(-c2ccc(-c3nc4ccccc4o3)cc2)s1; 55.2

Ask: Hi! What's the reported TGI for `CC(=O)O[C@@H]1[C@@H](O)C2=C3[C@]4(C)[C@@H]1C(C)(C)C(=O)C[C@@H]4[C@]3(O)[C@H](OC(C)=O)[C@@]1(C[C@@H]1C)C2=O` on MDA-MB-231 breast?
Reply: 37.7

Ask: Lookup: TGI / MDA-MB-231 breast / `CC(=O)Oc1cc2c(c3ncccc13)OC(C)(C)C2`
Reply: 24.4

* * *

# Test system: PC-3 prostate
# method description: NCI tumour cell line growth inhibition, 48 h
The entries below come with measured GI50 values attached.

Consider the worked cases shown below.
CCCCCCCCCCCCCCCC[N+](C)(CCO)Cc1cnc[nH]1 (centres undefined); 0.441 µM
S=C(Nc1ccc(Cl)cc1)Nc1ccc(-c2nc3ccccc3o2)cc1; 15.4 µM
Nc1ccccc1NC(=O)c1ccc(CCCC(=O)Nc2ccc(C3CC3N)cc2)cc1 (centres undefined); 2.32 µM

Ask: I am curious: what GI50 value has been reported for `Cc1nccc2c3ccc(OCc4cn(-c5ccc(Cl)cc5)nn4)cc3n(CCCc3ccccc3)c12` ?
Reply: 2.42 µM

* * *

# Tested on: DMS 114 small cell lung
# method description: NCI tumour cell line growth inhibition, 48 h
The entries below come with measured TGI values attached.
The reply should contain only the number, in µM.

Worked set:
O=S(=O)(SCc1ccccc1)C(c1ccccc1)c1ccccc1; 48.1
O=C1C=CC2=[N+]([O-])C(c3ccccc3)(c3ccccc3)C(=Nc3ccccc3)C2=C1; 3.32
CC(C)CCC[C@@H](C)C1CCC2[C@@H]3CC=C4C[C@@H](C(=O)NCC[N+](C)(C)CCCS(=O)(=O)[O-])CC[C@]4(C)C3CC[C@@]21C (stereo not given in full); 35.7
C[C@@H](CN1CC(=O)NC(=O)C1)N1CC(=O)NC(=O)C1; 441
O=S(=O)(N/N=C/c1cccc(Cl)c1Cl)c1ccccc1; 90.3

Could you now look at the following compound, please?
Ask: Item: `CCCCCCCC/C=C\CCCCCCCC(=O)O` Test system: DMS 114 small cell lung Read-out: TGI Value: ?
Reply: 194

* * *

# Test system: HS 578T breast
# method description: NCI tumour cell line growth inhibition, 48 h
reported property: TGI

Ask: For the record `CN(C)c1ncc(-c2ccc(C(F)(F)F)cc2)c(NC2CCCCCC2)n1` , what value of TGI is listed for HS 578T breast?
Reply: > 100 µM

Ask: Query TGI on HS 578T breast for `O=C(N/N=C/c1ccc([N+](=O)[O-])o1)c1ccc(C(=O)N/N=C/c2ccc([N+](=O)[O-])o2)cc1`
Reply: > 100 µM

* * *

# Test system: DMS 273 small cell lung
# method description: NCI tumour cell line growth inhibition, 48 h
Listed here are compounds together with their documented TGI.

Guide cases for TGI, answers given:
CN(CC#N)C1CCCC[C@H]1O (stereo partly specified); > 100 µM
COc1cc(O)c2c(c1)C(=O)C=C(Cl)C2=O; > 100 µM
CC1=C(C(=O)NCc2ccccc2)C(c2ccc([N+](=O)[O-])cc2)C(C(=O)NCc2ccccc2)=C(C)N1; > 100 µM
CCN(CC)CCCNc1ncc(C)c2[nH]c3ccncc3c12; 25.8 µM
O/N=C1/C(=C/c2ccc(Oc3ccccc3)cc2)CCCC1C(NO)c1ccc(Oc2ccccc2)cc1 (stereo unspecified); > 100 µM
COc1ccc(C2Oc3cc(OC)c(O)c(C)c3[C@H]2C)cc1 (stereo partly specified); > 100 µM
NC(=O)c1coc(C2OC(CO)C(O)C2O)n1 (stereo unspecified); > 100 µM
O=C(Cc1csc(-c2nc(CC(=O)NNc3ccccc3)cs2)n1)NNc1ccccc1; 34.2 µM
CN(C)/N=C(/c1nc2ccc([N+](=O)[O-])cc2[nH]c1=O)C(O)c1ccco1 (stereo unspecified); > 100 µM
CC(=O)C1C(=O)NC(=O)C1=O (stereo unspecified); > 100 µM

Now turn to the next compound.
Ask: Give the measured TGI of `O=C(O)CS` .
Reply: > 100 µM
